- Target Under Test: T1, recombinant human ASM protein (human, UniProt P17405 47-630)
- T1 construct: Recombinant human ASM in solution; also called acid sphingomyelinase (ASM) protein
- T1 sequence: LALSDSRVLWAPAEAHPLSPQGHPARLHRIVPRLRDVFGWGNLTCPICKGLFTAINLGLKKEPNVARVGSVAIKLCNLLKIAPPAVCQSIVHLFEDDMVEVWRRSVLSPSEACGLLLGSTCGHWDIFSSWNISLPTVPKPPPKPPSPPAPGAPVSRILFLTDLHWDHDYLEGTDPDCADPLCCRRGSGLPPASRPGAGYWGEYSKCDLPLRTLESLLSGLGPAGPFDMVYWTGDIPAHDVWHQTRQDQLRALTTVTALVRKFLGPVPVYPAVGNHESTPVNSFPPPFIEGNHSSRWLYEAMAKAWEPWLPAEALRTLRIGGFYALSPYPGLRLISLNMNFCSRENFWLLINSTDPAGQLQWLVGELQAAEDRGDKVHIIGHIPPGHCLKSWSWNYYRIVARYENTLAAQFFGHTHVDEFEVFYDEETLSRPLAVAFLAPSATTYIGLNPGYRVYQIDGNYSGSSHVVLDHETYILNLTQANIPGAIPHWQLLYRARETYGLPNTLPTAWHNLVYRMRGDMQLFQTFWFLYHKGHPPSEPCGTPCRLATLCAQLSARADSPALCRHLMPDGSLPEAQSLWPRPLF
- Experiment Description: BLI (Octet), antibody on AHC sensor
Listed binders paired with reported koff
Dear colleague, please send the value followed by its unit.

Binder	koff
#9104v-H14 (antibody, human IgG4 S228P, lambda, V domains shown, Full-length IgG, lambda) VH: EVQLLESGGGLVQPGGSLRLSCAASGFTFSNYYMSWVRQAPGKGLEWVSGIYYGSGKPYYADSVKGRFTISRDNSKNTLYLQMNSLRAEDTAVYYCARDTPGFDYWGQGTLVTVSS VL: QSVLTQPPSASGTPGQRVTISCTGSSSNIGNNAVNWYQQLPGTAPKLLIYYDSHRPSGVPDRFSGSKSGTSASLAISGLRSEDEADYYCGAWDYSLSAYVFGGGTKLTVLG	0.000281 s⁻¹
#9104v-H30 (antibody, human IgG4 S228P, lambda, V domains shown, Full-length IgG, lambda) VH: EVQLLESGGGLVQPGGSLRLSCAASGFTFSNYYMSWVRQAPGKGLEWVSGTYYSSGGIYYADSVKGRFTISRDNSKNTLYLQMNSLRAEDTAVYYCARDTPGFDYWGQGTLVTVSS VL: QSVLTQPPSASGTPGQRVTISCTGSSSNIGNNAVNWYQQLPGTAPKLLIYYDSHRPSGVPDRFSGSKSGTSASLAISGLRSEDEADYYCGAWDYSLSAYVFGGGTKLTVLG	0.000151 s⁻¹
#9104 (antibody, V domains shown, Parental antibody; also called antibody #9104) VH: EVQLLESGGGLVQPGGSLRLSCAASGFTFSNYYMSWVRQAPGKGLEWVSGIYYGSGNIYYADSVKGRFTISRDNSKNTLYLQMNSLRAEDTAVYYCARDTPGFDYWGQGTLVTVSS VL: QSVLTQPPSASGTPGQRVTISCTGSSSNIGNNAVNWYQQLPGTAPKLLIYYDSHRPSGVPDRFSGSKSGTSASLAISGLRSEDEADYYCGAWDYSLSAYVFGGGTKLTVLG	0.000873 s⁻¹
#9104v-H02 (antibody, human IgG4 S228P, lambda, V domains shown, Full-length IgG, lambda) VH: EVQLLESGGGLVQPGGSLRLSCAASGFTFSNYYMSWVRQAPGKGLEWVSGIYFGSGDIRYADSVKGRFTISRDNSKNTLYLQMNSLRAEDTAVYYCARDTPGFDYWGQGTLVTVSS VL: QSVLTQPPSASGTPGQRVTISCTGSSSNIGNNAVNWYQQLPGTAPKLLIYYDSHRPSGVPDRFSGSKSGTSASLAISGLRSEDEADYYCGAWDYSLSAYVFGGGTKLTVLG	0.000333 s⁻¹

For the next question, use this binder.
Dear colleague, I am looking for the recorded koff of the following binder: #9104v-H33 (antibody, human IgG4 S228P, lambda, V domains shown, Full-length IgG, lambda) VH: EVQLLESGGGLVQPGGSLRLSCAASGFTFSNYYMSWVRQAPGKGLEWVSGVYYPSGNPYYADSVKGRFTISRDNSKNTLYLQMNSLRAEDTAVYYCARDTPGFDYWGQGTLVTVSS VL: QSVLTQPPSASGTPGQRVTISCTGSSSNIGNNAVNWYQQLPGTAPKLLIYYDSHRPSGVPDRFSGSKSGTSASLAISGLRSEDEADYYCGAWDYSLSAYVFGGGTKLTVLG
0.000108 s⁻¹
